Reported values of switch fluorescence ratio for individual entries
- Test system: ATP;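 also: ATP exposure 15 min at 22 °C before imaging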
- EXPERIMENTAL_PROTOCOL: switch fluorescence ratio, 500 uM ATP over buffer (Cy3 cluster intensity, sum of 5 cycles each) (fold (ratio)); higher = stronger signal-on switching upon ATP binding; sequences stand for … in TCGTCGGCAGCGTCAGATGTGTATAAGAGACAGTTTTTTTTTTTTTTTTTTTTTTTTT…TC
- MEASUREMENT_PARAMETERS: aptamer strand: ATP DNA aptamer (quencher-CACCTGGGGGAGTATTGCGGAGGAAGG + anchor), 100 nM annealed; ATP concentration: 500 uM
Form rule: numeric answer, no unit written next to it.

Here are 5 sequences together with their reported answers.
- INPUT_SEQUENCE: "GTGATTTTAT"
  SYSTEM_NAME: "ATP"
  switch fluorescence ratio: 0.969
- INPUT_SEQUENCE: "GACCGGCGTC"
  SYSTEM_NAME: "ATP"
  switch fluorescence ratio: 1.02
- INPUT_SEQUENCE: "AGTTGTACTA"
  SYSTEM_NAME: "ATP"
  switch fluorescence ratio: 0.963
- INPUT_SEQUENCE: "TGTTGTAGAC"
  SYSTEM_NAME: "ATP"
  switch fluorescence ratio: 0.961
- INPUT_SEQUENCE: "TGAGGTGTTT"
  SYSTEM_NAME: "ATP"
  switch fluorescence ratio: 0.992

# query: switch fluorescence ratio of entry "CTCCGGGGTT"
1.85

For "GAAGGGATGT" , what is its reported switch fluorescence ratio?
1.01

====

- Test system: ATP;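 also: ATP exposure 15 min at 22 °C before imaging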
- EXPERIMENTAL_PROTOCOL: switch fluorescence ratio, 500 uM ATP over buffer (Cy3 cluster intensity, sum of 5 cycles each) (fold (ratio)); higher = stronger signal-on switching upon ATP binding; sequences stand for … in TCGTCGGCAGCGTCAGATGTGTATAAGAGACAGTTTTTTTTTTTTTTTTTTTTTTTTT…TC
- MEASUREMENT_PARAMETERS: aptamer strand: ATP DNA aptamer (quencher-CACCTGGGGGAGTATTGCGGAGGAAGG + anchor), 100 nM annealed; ATP concentration: 500 uM
Entries and their switch fluorescence ratio
Enter the number alone.

The cases that follow already have their switch fluorescence ratio on record.
- INPUT_SEQUENCE: "AATGTAAAG"
  SYSTEM_NAME: "ATP"
  VALUE: 1.03
- INPUT_SEQUENCE: "TGGGGTAAAC"
  SYSTEM_NAME: "ATP"
  VALUE: 0.997
- INPUT_SEQUENCE: "GATAAAAGCG"
  SYSTEM_NAME: "ATP"
  VALUE: 0.994
- INPUT_SEQUENCE: "AGAAGGTATG"
  SYSTEM_NAME: "ATP"
  VALUE: 1
- INPUT_SEQUENCE: "AATGTTGTTT"
  SYSTEM_NAME: "ATP"
  VALUE: 0.976

Write down the reported switch fluorescence ratio of "TTAAAGGTAT" , test system: ATP.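 Also: ATP exposure 15 min at 22 °C before imaging.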
1.11

Report switch fluorescence ratio for "CAGGTTTCGG" tested on ATP.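 Also: ATP exposure 15 min at 22 °C before imaging.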
0.987

Quick check: switch fluorescence ratio on ATP, item "CGAGGTGAAG" ?
0.992

Entry "AAAAATGTCA" , system ATP: what switch fluorescence ratio was measured?;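 also: ATP exposure 15 min at 22 °C before imaging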
0.979

Report switch fluorescence ratio for "TTCTAATCGG" tested on ATP.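 Also: ATP exposure 15 min at 22 °C before imaging.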
1.01

Query switch fluorescence ratio on ATP for "GACCATTTTT"
1.02

Query the reported switch fluorescence ratio for ATP; item: "ATGCGTGTTT"
1
